Target: human Nav1.5 channels (Homo sapiens)
Sequence (Q14524 whole entry): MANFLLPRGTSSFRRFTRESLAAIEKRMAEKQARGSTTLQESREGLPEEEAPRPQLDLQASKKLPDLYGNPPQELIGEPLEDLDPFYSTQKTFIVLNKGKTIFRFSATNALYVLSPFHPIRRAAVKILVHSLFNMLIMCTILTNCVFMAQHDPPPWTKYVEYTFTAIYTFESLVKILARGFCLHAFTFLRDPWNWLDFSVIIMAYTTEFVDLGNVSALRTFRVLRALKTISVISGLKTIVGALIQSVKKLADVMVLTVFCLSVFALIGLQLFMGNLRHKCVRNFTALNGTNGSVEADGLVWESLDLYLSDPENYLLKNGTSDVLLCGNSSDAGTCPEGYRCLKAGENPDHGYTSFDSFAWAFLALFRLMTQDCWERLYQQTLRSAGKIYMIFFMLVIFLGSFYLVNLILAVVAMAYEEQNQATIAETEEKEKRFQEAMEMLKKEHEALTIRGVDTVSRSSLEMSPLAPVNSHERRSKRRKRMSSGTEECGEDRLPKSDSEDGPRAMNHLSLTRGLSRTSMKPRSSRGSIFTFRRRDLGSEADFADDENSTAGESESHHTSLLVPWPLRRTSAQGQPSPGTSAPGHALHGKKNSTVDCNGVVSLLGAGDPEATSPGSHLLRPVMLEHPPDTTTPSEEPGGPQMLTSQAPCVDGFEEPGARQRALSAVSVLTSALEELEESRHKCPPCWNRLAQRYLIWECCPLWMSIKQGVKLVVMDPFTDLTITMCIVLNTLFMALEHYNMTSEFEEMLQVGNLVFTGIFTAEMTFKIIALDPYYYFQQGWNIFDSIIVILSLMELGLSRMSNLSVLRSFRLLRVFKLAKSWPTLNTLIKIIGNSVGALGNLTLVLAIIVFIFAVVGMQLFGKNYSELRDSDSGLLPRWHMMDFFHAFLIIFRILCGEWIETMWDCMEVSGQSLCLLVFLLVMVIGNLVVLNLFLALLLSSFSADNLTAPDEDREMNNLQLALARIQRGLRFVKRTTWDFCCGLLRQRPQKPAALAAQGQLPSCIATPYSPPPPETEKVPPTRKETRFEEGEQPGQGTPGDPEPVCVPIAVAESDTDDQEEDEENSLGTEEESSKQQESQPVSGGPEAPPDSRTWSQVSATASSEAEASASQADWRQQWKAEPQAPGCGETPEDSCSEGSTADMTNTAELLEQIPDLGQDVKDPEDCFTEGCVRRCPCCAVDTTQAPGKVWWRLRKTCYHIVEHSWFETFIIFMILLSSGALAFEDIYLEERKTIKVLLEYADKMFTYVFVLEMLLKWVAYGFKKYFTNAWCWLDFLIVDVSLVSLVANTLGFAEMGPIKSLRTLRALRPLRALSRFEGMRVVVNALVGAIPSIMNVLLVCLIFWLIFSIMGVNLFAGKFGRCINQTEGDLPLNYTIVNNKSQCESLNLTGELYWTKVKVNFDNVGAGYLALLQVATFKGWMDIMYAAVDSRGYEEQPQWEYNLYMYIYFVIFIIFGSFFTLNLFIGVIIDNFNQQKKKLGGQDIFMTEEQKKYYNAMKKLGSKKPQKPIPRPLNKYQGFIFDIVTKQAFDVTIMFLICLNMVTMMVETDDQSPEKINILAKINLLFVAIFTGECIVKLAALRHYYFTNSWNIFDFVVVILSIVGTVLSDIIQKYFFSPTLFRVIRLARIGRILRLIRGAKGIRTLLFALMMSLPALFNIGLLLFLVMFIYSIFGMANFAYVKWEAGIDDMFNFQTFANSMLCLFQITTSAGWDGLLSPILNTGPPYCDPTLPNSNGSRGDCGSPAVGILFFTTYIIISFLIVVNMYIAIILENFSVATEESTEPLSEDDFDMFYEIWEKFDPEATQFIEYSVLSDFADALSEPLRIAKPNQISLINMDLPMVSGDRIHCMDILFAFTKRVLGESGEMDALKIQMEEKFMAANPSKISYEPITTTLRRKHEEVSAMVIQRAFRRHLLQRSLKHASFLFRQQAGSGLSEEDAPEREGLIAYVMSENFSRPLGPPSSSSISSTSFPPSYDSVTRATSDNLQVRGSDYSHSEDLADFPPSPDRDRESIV
Test: FRET assay, human Nav1.5 (EFS on FDSS)
Settings: HEK293 cells expressing human Nav1.5, read-out: activities against Nav1.5
Measured Endpoint: IC50

# value lookup — system human Nav1.5 channels (Homo sapiens), readout IC50, item CC(=O)Nc1cc(C(=O)NC(C)c2ccc(OCC(F)(F)F)nc2)ccn1 (single isomer, unassigned; (-)) [Example 1]
> 30 µM

###

For each of the compounds below, state its IC50.
Biological target: human Nav1.7 channels (Homo sapiens, UniProt Q15858)
Sequence (Q15858 whole entry): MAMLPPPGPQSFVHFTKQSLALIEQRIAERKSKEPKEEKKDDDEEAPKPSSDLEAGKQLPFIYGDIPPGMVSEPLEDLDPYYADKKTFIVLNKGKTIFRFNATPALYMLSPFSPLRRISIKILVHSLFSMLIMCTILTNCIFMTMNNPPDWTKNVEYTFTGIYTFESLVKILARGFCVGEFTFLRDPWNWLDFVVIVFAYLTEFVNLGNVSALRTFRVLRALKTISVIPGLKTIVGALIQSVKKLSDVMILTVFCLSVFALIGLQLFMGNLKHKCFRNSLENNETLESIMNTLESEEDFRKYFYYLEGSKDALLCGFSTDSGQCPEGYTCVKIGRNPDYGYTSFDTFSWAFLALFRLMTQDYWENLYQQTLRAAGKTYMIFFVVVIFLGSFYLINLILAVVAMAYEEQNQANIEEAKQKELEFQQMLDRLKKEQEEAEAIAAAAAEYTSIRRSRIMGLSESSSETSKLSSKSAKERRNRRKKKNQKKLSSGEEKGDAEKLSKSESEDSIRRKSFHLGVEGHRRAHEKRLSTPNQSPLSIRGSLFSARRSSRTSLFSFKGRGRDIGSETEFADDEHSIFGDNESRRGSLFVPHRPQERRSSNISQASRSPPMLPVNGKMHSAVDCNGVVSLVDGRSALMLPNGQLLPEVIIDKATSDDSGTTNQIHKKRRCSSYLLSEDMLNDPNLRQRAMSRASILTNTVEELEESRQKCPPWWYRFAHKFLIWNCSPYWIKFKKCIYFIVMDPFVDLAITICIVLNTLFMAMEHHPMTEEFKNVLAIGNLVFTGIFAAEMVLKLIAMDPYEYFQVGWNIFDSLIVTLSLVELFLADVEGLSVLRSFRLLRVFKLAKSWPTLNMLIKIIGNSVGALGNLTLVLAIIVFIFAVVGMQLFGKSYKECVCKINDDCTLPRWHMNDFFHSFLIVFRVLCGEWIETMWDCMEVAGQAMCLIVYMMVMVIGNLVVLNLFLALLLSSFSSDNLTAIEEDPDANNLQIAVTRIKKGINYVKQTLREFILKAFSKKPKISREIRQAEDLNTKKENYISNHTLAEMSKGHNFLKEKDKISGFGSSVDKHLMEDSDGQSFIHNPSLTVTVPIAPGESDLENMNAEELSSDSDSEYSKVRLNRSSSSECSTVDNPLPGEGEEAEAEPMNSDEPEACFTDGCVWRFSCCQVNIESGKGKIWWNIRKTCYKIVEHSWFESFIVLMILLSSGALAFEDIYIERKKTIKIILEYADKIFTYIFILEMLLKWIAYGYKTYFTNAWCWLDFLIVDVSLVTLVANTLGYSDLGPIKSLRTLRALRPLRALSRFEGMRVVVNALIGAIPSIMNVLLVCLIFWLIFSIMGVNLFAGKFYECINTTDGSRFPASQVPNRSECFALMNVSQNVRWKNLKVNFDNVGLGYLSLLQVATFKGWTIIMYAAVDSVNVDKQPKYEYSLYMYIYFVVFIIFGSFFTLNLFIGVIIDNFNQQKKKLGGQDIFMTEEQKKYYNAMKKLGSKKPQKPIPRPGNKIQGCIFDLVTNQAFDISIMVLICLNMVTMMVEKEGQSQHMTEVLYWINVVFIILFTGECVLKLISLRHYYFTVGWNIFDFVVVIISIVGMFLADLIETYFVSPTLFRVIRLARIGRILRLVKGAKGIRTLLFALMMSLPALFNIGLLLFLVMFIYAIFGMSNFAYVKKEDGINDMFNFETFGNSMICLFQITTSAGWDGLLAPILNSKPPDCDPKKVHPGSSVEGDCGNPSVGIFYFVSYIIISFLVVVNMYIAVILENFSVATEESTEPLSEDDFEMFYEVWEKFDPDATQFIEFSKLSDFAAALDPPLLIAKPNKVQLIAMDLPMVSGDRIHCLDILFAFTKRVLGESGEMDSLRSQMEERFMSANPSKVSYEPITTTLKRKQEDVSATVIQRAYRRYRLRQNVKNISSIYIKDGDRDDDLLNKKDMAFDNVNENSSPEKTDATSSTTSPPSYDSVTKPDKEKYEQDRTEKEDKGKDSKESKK
Experiment: FRET assay, human Nav1.7 (EFS on FDSS)
Settings: CHO cells expressing human Nav1.7, read-out: IC50 against Nav1.7

Below: 8 compounds and their reported IC50.
CC(NC(=O)c1ccnc(NC(=O)C2CC2)c1)c1ccc(OCC(C)(F)F)nc1 (single isomer, unassigned) = < 1000 nM
Cc1cc(C(=O)NCc2cccc(C(F)(F)F)c2Cl)cc(NC(=O)C(C)C)n1 = < 1000 nM
Cc1cc(C(=O)NC(C)c2ccc(OCC(F)F)c(Cl)c2)cc(NC(=O)C(C)C)n1 (single isomer, unassigned) = < 1000 nM
Cc1cc(C(C)NC(=O)c2ccnc(NC(=O)C(C)C)c2)cnc1OCC(F)(F)F (single isomer, unassigned) = < 1000 nM
CCC(=O)Nc1cc(C(=O)NC(CC)c2ccc(OCC(F)(F)F)nc2)cc(C)n1 (single isomer, unassigned) = < 1000 nM
O=C(NCc1ccc(OCC(F)(F)F)nc1N1CCCCC1)c1ccnc(NC(=O)C2CC2)c1 = < 1000 nM
Cc1cc(C(=O)NC(C)c2cnc(OCC(F)(F)F)c(Cl)c2)cc(NC(=O)C2CC2)n1 (single isomer, unassigned) = < 1000 nM
CCC(=O)Nc1cc(C(=O)NC(C)c2ccc(OCC(F)(F)F)cc2)cc(C)n1 (single isomer, unassigned) = < 1000 nM

Hey, quick one: what's IC50 for each of these?
1. Cc1cc(C(=O)NCc2cc(C(F)(F)F)ccc2F)cc(NC(=O)C2CC2)n1
2. CCC(=O)Nc1cc(C(=O)NCc2cccc(C(F)(F)F)c2)cc(C)n1

1: < 1000 nM; 2: < 1000 nM

Hey, can you go through the list below and give me IC50 for every item?
1. COc1c(CNC(=O)c2ccnc(NC(=O)C(C)C)c2)cccc1C(F)(F)F
2. CCC(=O)Nc1cc(C(=O)NC(C)c2ccc(OC(F)(F)F)cc2)cc(C)n1 (single isomer, unassigned)
3. Cc1cc(C(=O)NC(C)c2ccc(OCC(F)(F)C(F)F)nc2)cc(NC(=O)C(C)C)n1 (single isomer, unassigned)

1. < 1000 nM
2. < 1000 nM
3. < 1000 nM
